System: AVEFA
Assay: Post-emergence action against AVEFA
Type: in vivo, Avena fatua
Conditions: Avena fatua, 504 h; post-emergence, dosage 80 g/ha, visual assessment about 3 weeks after treatment vs untreated controls; read-out: Post-emergence action against AVEFA (herbicidal action in percent)
readout kind: pest or weed control at 80 g/ha (%)
Field: numeric (%). Do not append units.

COc1c(C(=O)Nc2nnnn2C)ccc(C(F)(F)F)c1C(=O)C1CC1 [1-50]; 100
CC(=O)c1c(I)ccc(C(=O)Nc2nnnn2C)c1Cl [1-192]; 80
CSc1c(C(=O)Nc2nnnn2C)ccc(C(F)(F)F)c1C(=O)C1CC1 [1-60]; 100
CC(=O)c1c(C(F)(F)F)ccc(C(=O)Nc2nnnn2C)c1Cl [1-137]; 100
Cn1nnnc1NC(=O)c1ccc(S(C)(=O)=O)c(C(=O)C2CC2)c1Cl [1-129]; 100

pest or weed control at 80 g/ha reported for this compound CCC(=O)c1c(C(F)F)ccc(C(=O)Nc2nnnn2C)c1Cl [1-165] : 90

According to the records, this compound CSc1ccc(C(=O)Nc2nnnn2C)c(Cl)c1C(=O)C1CC1 [1-123] displays pest or weed control at 80 g/ha of 100

Sure, the documented pest or weed control at 80 g/ha for CCC(=O)c1c(C(F)(F)F)ccc(C(=O)Nc2nnnn2C)c1Cl [1-138] is 100

---

Reported Post-emergence action against ABUTH (herbicidal action in percent) values for a set of compounds
Tested on: ABUTH
Assay: Post-emergence action against ABUTH
Type: in vivo, Abutilon theophrasti
Settings: post-emergence, dosage 80 g/ha, visual assessment about 3 weeks after treatment vs untreated controls
Report the figure in % without appending any unit label.

Some compounds with recorded Post-emergence action against ABUTH (herbicidal action in percent):
CCn1nnnc1NC(=O)c1ccc(SC)c(C(=O)C2CC2)c1Cl [2-123]; 100
Cn1nnnc1NC(=O)c1ccc(C(F)(F)F)c(C(=O)C2CCC2)c1Cl [1-153]; 100
CCC(=O)c1c(Cl)ccc(C(=O)Nc2nnnn2CC)c1Cl [2-115]; 90
CCCn1nnnc1NC(=O)c1ccc(C(F)(F)F)c(C(C)=O)c1C [3-14]; 90
CCn1nnnc1NC(=O)c1ccc(S(C)(=O)=O)c(C(=O)C2CC2)c1C [2-9]; 90
CCCn1nnnc1NC(=O)c1ccc(C(F)(F)F)c(C(=O)C2CC2)c1Cl [3-141]; 80

// recorded Post-emergence action against ABUTH (herbicidal action in percent) for Cn1nnnc1NC(=O)c1ccc(C(F)(F)F)c(C(=O)C2CCCC2)c1Cl [1-154] : 90

Record CCCn1nnnc1NC(=O)c1ccc(C(F)(F)F)c(C(=O)C2CC2)c1Br [3-197] , field Post-emergence action against ABUTH (herbicidal action in percent): 90

Reported Post-emergence action against ABUTH (herbicidal action in percent) for CCn1nnnc1NC(=O)c1ccc(C(F)F)c(C(C)=O)c1SC [2-65] was 100

Record summary for CCCn1nnnc1NC(=O)c1ccc(C(F)F)c(C(C)=O)c1Cl [3-164] : reported Post-emergence action against ABUTH (herbicidal action in percent) = 90

---

System: VIOTR
Assay: Post-emergence action against VIOTR
Format: in vivo, Viola tricolor
Details: post-emergence, dosage 80 g/ha
Reported Post-emergence action against VIOTR values follow for various compounds
Could you keep your reply to the number by itself?

COCC(=O)c1c(C(F)(F)F)ccc(C(=O)Nc2nnnn2C)c1Cl; 100

Per the records, this compound ( `CCCC(=O)c1c(C(F)(F)F)ccc(C(=O)Nc2nnnn2CCC)c1C` ) has Post-emergence action against VIOTR equal to 80

Record `CCCn1nnnc1NC(=O)c1ccc(C(F)(F)F)c(C(=O)C2CC2)c1C` , field Post-emergence action against VIOTR: 100
